Each recorded value in this set is attributed to ChEMBL document CHEMBL3352255.

# Tested on: C2C12
# experimentNotes: Cytotoxicity against mouse C2C12 cells after 72 hrs by WST-1 assay
# Assay type: functional, cell-based
# conditionLabel: C2C12, 72 h
Kindly supply the reported IC50 values for the records listed here.

Form: compound = F[B-]1(F)n2cccc2C=C2C=CC=[N+]21 ; IC50 = > 50 µM

Form: compound = C/C=C(/C)C(=O)O[C@@H]1C[C@H]2C(=C1C)[C@@H]1OC(=O)[C@@](C)(O)[C@@]1(O)[C@@H](OC(=O)CCOCCOCCOCCOCCn1cc(COCCOCCOCCOCCNC(=O)CCOCCOCCOCCOCCn3cc(COc4ccc(C5=C6C=CC=[N+]6[B-](F)(F)n6cccc65)cc4)nn3)nn1)C[C@]2(C)OC(C)=O ; IC50 = > 50 µM

Form: compound = C/C=C(/C)C(=O)O[C@@H]1C[C@H]2C(=C1C)[C@@H]1OC(=O)[C@@](C)(O)[C@@]1(O)[C@@H](OC(=O)CCOCCOCCOCCOCCOCCOCCOCCOCCOCCOCCn1cc(COc3ccc(C4=C5C=CC=[N+]5[B-](F)(F)n5cccc54)cc3)nn1)C[C@]2(C)OC(C)=O ; IC50 = > 50 µM

Form: compound = C/C=C(/C)C(=O)O[C@@H]1C[C@H]2C(=C1C)[C@@H]1OC(=O)[C@@](C)(O)[C@@]1(O)[C@@H](OC(=O)CCOCCOCCOCCOCCn1cc(COc3ccc(C4=C5C=CC=[N+]5[B-](F)(F)n5cccc54)cc3)nn1)C[C@]2(C)OC(C)=O ; IC50 = 14.3 µM

---

# Test system: C2C12
# experimentNotes: Cytotoxicity against mouse C2C12 cells after 48 hrs by WST-1 assay
# Assay type: functional, cell-based
# conditionLabel: C2C12, 48 h
valueType: pIC50
# pIC50 = -log10(concentration in molar units)

Form: molecule = C/C=C(/C)C(=O)O[C@@H]1C[C@H]2C(=C1C)[C@@H]1OC(=O)[C@@](C)(O)[C@@]1(O)[C@@H](OC(=O)CCOCCOCCOCCOCCn1cc(COc3ccc(C4=C5C=CC=[N+]5[B-](F)(F)n5cccc54)cc3)nn1)C[C@]2(C)OC(C)=O ; pIC50 = 5.19

Form: molecule = C/C=C(/C)C(=O)O[C@@H]1C[C@H]2C(=C1C)[C@@H]1OC(=O)[C@@](C)(O)[C@@]1(O)[C@@H](OC(=O)[C@@H](C)CC)C[C@]2(C)OC(C)=O ; pIC50 = 6.00

Form: molecule = C/C=C(/C)C(=O)O[C@@H]1C[C@H]2C(=C1C)[C@@H]1OC(=O)[C@@](C)(O)[C@@]1(O)[C@@H](OC(=O)CCCCn1cc(COc3ccc(C4=C5C=CC=[N+]5[B-](F)(F)n5cccc54)cc3)nn1)C[C@]2(C)OC(C)=O ; pIC50 = 5.12

---

# experimentNotes: Cytotoxicity against human MIAPaCa2 cells after 24 hrs by WST-1 assay
# Type: functional, cell-based
# conditionLabel: MIA PaCa-2, 24 h
pIC50: −log10 of the molar value.
Kindly supply the reported pIC50 values for the records listed here.

Form: compound = C/C=C(/C)C(=O)O[C@@H]1C[C@H]2C(=C1C)[C@@H]1OC(=O)[C@@](C)(O)[C@@]1(O)[C@@H](OC(=O)CCOCCOCCOCCOCCn1cc(COCCOCCOCCOCCNC(=O)CCOCCOCCOCCOCCn3cc(COc4ccc(C5=C6C=CC=[N+]6[B-](F)(F)n6cccc65)cc4)nn3)nn1)C[C@]2(C)OC(C)=O ; pIC50 = < 4.30

Form: compound = F[B-]1(F)n2cccc2C=C2C=CC=[N+]21 ; pIC50 = < 4.30

Form: compound = C/C=C(/C)C(=O)O[C@@H]1C[C@H]2C(=C1C)[C@@H]1OC(=O)[C@@](C)(O)[C@@]1(O)[C@@H](OC(=O)CCOCCOCCOCCOCCn1cc(COc3ccc(C4=C5C=CC=[N+]5[B-](F)(F)n5cccc54)cc3)nn1)C[C@]2(C)OC(C)=O ; pIC50 = < 4.30

---

# experimentNotes: Cytotoxicity against rat peritoneal cells assessed as reduction in cell viability at 40 uM after 24 hrs by WST-1 assay
# Assay type: cell-based
valueType: Activity

Previously resolved entries follow.
C/C=C(/C)C(=O)O[C@@H]1C[C@H]2C(=C1C)[C@@H]1OC(=O)[C@@](C)(O)[C@@]1(O)[C@@H](OC(=O)CCOCCOCCOCCOCCOCCOCCOCCOCCOCCOCCn1cc(COc3ccc(C4=C5C=CC=[N+]5[B-](F)(F)n5cccc54)cc3)nn1)C[C@]2(C)OC(C)=O Non-toxic
C/C=C(/C)C(=O)O[C@@H]1C[C@H]2C(=C1C)[C@@H]1OC(=O)[C@@](C)(O)[C@@]1(O)[C@@H](OC(=O)CCOCCOCCOCCOCCn1cc(COCCOCCOCCOCCNC(=O)CCOCCOCCOCCOCCn3cc(COc4ccc(C5=C6C=CC=[N+]6[B-](F)(F)n6cccc65)cc4)nn3)nn1)C[C@]2(C)OC(C)=O Non-toxic
C/C=C(/C)C(=O)O[C@@H]1C[C@H]2C(=C1C)[C@@H]1OC(=O)[C@@](C)(O)[C@@]1(O)[C@@H](OC(=O)CCCCn1cc(COc3ccc(C4=C5C=CC=[N+]5[B-](F)(F)n5cccc54)cc3)nn1)C[C@]2(C)OC(C)=O 20%
C/C=C(/C)C(=O)O[C@@H]1C[C@H]2C(=C1C)[C@@H]1OC(=O)[C@@](C)(O)[C@@]1(O)[C@@H](OC(=O)Cn1cc(COc3ccc(C4=C5C=CC=[N+]5[B-](F)(F)n5cccc54)cc3)nn1)C[C@]2(C)OC(C)=O Non-toxic

Kindly review the next compound as well.
Form: compound = C/C=C(/C)C(=O)O[C@@H]1C[C@H]2C(=C1C)[C@@H]1OC(=O)[C@@](C)(O)[C@@]1(O)[C@@H](OC(=O)CCOCCOCCOCCOCCn1cc(COc3ccc(C4=C5C=CC=[N+]5[B-](F)(F)n5cccc54)cc3)nn1)C[C@]2(C)OC(C)=O ; Activity = Non-toxic

---

# Test system: U2OS
# experimentNotes: Cytotoxicity against human U2OS cells after 24 hrs by WST-1 assay
# Format: functional, cell-based
pIC50: −log10 of the molar value.
Kindly supply the reported pIC50 values for the records listed here.

Form: molecule = C/C=C(/C)C(=O)O[C@@H]1C[C@H]2C(=C1C)[C@@H]1OC(=O)[C@@](C)(O)[C@@]1(O)[C@@H](OC(=O)[C@@H](C)CC)C[C@]2(C)OC(C)=O ; pIC50 = 4.90

Form: molecule = C/C=C(/C)C(=O)O[C@@H]1C[C@H]2C(=C1C)[C@@H]1OC(=O)[C@@](C)(O)[C@@]1(O)[C@@H](OC(=O)CCOCCOCCOCCOCCOCCOCCOCCOCCOCCOCCn1cc(COc3ccc(C4=C5C=CC=[N+]5[B-](F)(F)n5cccc54)cc3)nn1)C[C@]2(C)OC(C)=O ; pIC50 = < 4.30

Form: molecule = C/C=C(/C)C(=O)O[C@@H]1C[C@H]2C(=C1C)[C@@H]1OC(=O)[C@@](C)(O)[C@@]1(O)[C@@H](OC(=O)Cn1cc(COc3ccc(C4=C5C=CC=[N+]5[B-](F)(F)n5cccc54)cc3)nn1)C[C@]2(C)OC(C)=O ; pIC50 = < 4.30

---

# experimentNotes: Cytotoxicity against human MIAPaCa2 cells after 48 hrs by WST-1 assay
# Format: functional, cell-based
# conditionLabel: MIA PaCa-2, 48 h
pIC50: −log10 of the molar value.
valueType: pIC50

Form: compound = C/C=C(/C)C(=O)O[C@@H]1C[C@H]2C(=C1C)[C@@H]1OC(=O)[C@@](C)(O)[C@@]1(O)[C@@H](OC(=O)CCOCCOCCOCCOCCn1cc(COCCOCCOCCOCCNC(=O)CCOCCOCCOCCOCCn3cc(COc4ccc(C5=C6C=CC=[N+]6[B-](F)(F)n6cccc65)cc4)nn3)nn1)C[C@]2(C)OC(C)=O ; pIC50 = < 4.30

Form: compound = F[B-]1(F)n2cccc2C=C2C=CC=[N+]21 ; pIC50 = < 4.30

Form: compound = C/C=C(/C)C(=O)O[C@@H]1C[C@H]2C(=C1C)[C@@H]1OC(=O)[C@@](C)(O)[C@@]1(O)[C@@H](OC(=O)Cn1cc(COc3ccc(C4=C5C=CC=[N+]5[B-](F)(F)n5cccc54)cc3)nn1)C[C@]2(C)OC(C)=O ; pIC50 = < 4.30

---

Kindly supply the reported pIC50 values for the records listed here.
# Tested on: LNCaP
# experimentNotes: Cytotoxicity against human LNCAP cells after 24 hrs by WST-1 assay
# Type: functional, cell-based
pIC50: −log10 of the molar value.

Reported pIC50 (LNCaP) for entry F[B-]1(F)n2cccc2C=C2C=CC=[N+]21 is < 4.30

Reported pIC50 (LNCaP) for entry C/C=C(/C)C(=O)O[C@@H]1C[C@H]2C(=C1C)[C@@H]1OC(=O)[C@@](C)(O)[C@@]1(O)[C@@H](OC(=O)Cn1cc(COc3ccc(C4=C5C=CC=[N+]5[B-](F)(F)n5cccc54)cc3)nn1)C[C@]2(C)OC(C)=O is < 4.30

Reported pIC50 (LNCaP) for entry C/C=C(/C)C(=O)O[C@@H]1C[C@H]2C(=C1C)[C@@H]1OC(=O)[C@@](C)(O)[C@@]1(O)[C@@H](OC(=O)CCOCCOCCOCCOCCOCCOCCOCCOCCOCCOCCn1cc(COc3ccc(C4=C5C=CC=[N+]5[B-](F)(F)n5cccc54)cc3)nn1)C[C@]2(C)OC(C)=O is < 4.30
